Every entry's value here was drawn from ChEMBL document CHEMBL4480428.

System: RAW264.7
Assay: Cytotoxicity against mouse RAW264.7 cells assessed as reduction in cell viability after 24 hrs by CCK8 assay
Type: cell-based
Details: RAW264.7, 24 h

{"columns": ["input.smiles", "IC50"],
 "data": [
  ["C=C1[C@@H](OC(=O)c2ccccc2)C[C@H]2[C@@H](/C=C(\\C)C(=O)[C@@]3(OC(C)=O)C[C@H](C)[C@H](OC(=O)c4ccccc4)[C@@H]3[C@H]1OC(C)=O)C2(C)C", "> 50 µM"],
  ["C=C1[C@@H](OC(=O)c2ccccc2)C[C@H]2[C@@H](/C=C(\\C)C(=O)[C@@]3(O)C[C@H](C)[C@H](OC(=O)c4ccccc4)[C@@H]3[C@H]1OC(C)=O)C2(C)C", "> 50 µM"],
  ["C=C1[C@H](OC(C)=O)C[C@H]2[C@@H](/C=C(\\C)C(=O)[C@@]3(OC(C)=O)C[C@H](C)[C@H](OC(=O)c4ccccc4)[C@@H]3[C@H]1O)C2(C)C", "> 50 µM"],
  ["CC(=O)O[C@]12C[C@H](C)[C@H](O)[C@@H]1[C@H]1O[C@]1(C)CC[C@H]1[C@H](/C=C(\\C)C2=O)C1(C)C", "> 50 µM"],
  ["CC(=O)O[C@]12C[C@H](C)[C@H](OC(=O)/C=C/c3ccccc3)[C@@H]1/C=C(/CO)CC[C@H]1[C@@H](/C=C(\\C)C2=O)C1(C)C", "> 50 µM"]
]}

---

Tested on: RAW264.7
Assay: Cytotoxicity against mouse RAW264.7 cells assessed as reduction in cell viability after 24 hrs by CCK8 assay
Assay type: cell-based
Conditions: RAW264.7, 24 h
pIC50: −log10 of the molar value.
Below is a list of entries, each paired with its recorded pIC50 value.

{"columns": ["input.smiles", "pIC50"],
 "data": [
  ["CC(=O)O[C@@H]1[C@H]2[C@@H](OC(=O)Cc3ccccc3)[C@@H](C)C[C@]2(OC(C)=O)C(=O)/C(C)=C/[C@@H]2[C@H](CC[C@]13CO3)C2(C)C", "< 4.30"],
  ["CC(=O)OC/C1=C\\C[C@H]2[C@@H](/C=C(\\C)C(=O)[C@@]3(O)C[C@H](C)[C@H](OC(=O)c4ccccc4)[C@@H]3[C@H]1OC(C)=O)C2(C)C", "< 4.30"],
  ["CC(=O)O[C@]12C[C@H](C)[C@H](OC(=O)Cc3ccccc3)[C@@H]1/C=C(/CO)CC[C@H]1[C@@H](/C=C(\\C)C2=O)C1(C)C", "< 4.30"],
  ["C=C1CC[C@H]2[C@@H](/C=C(\\C)C(=O)[C@@]3(OC(C)=O)C[C@H](C)[C@H](OC(=O)c4cccnc4)[C@@H]3[C@H]1OC(C)=O)C2(C)C", "< 4.30"],
  ["C=C1CC[C@H]2[C@@H](/C=C(\\C)C(=O)[C@@]3(OC(C)=O)C[C@H](C)[C@H](OC(=O)/C=C/c4ccccc4)[C@@H]3[C@H]1O)C2(C)C", "< 4.30"],
  ["C=C1CC[C@H]2[C@@H](/C=C(\\C)C(=O)[C@@]3(OC(C)=O)C[C@H](C)[C@H](OC(=O)c4ccccc4)[C@@H]3[C@H]1OC(C)=O)C2(C)C", "< 4.30"],
  ["C=C1[C@H](O)C[C@H]2[C@@H](/C=C(\\C)C(=O)[C@@]3(OC(C)=O)C[C@H](C)[C@H](OC(=O)c4ccccc4)[C@@H]3[C@H]1OC(C)=O)C2(C)C", "< 4.30"],
  ["CCCCCC(=O)O[C@H]1[C@@H](C)C[C@]2(OC(C)=O)C(=O)/C(C)=C/[C@@H]3[C@H](CC/C(CO)=C\\[C@@H]12)C3(C)C", "< 4.30"],
  ["C=C1[C@@H](OC(=O)c2cccnc2)C[C@H]2[C@@H](/C=C(\\C)C(=O)[C@@]3(OC(C)=O)C[C@H](C)[C@H](OC(=O)c4ccccc4)[C@@H]3[C@H]1OC(C)=O)C2(C)C", "< 4.30"],
  ["CC(=O)OC/C1=C/[C@H]2[C@@H](OC(=O)[C@H](O)c3ccccc3)[C@@H](C)C[C@]2(OC(C)=O)C(=O)/C(C)=C/[C@@H]2[C@H](CC1)C2(C)C", "< 4.30"],
  ["CC(=O)OC/C1=C/[C@@H]2[C@@H](O)[C@@H](C)C[C@]2(OC(C)=O)C(=O)/C(C)=C/[C@@H]2[C@H](CC1)C2(C)C", "< 4.30"]
]}
